test system: OVCAR-8 ovarian; experiment: NCI-60 one-dose screen, 48 h; conditions: 10 µM unless noted
This is part of a sample that, as a whole, favours compounds with a hit. Of some 83,000 tested, about 20% had one in any assay. The source made the active and inactive calls. The calls were made as follows: active = growth percent below 10; inactive = the rest.
Possible outcomes: YES for active, NO for inactive

molecule | assigned.label
Clc1ccc2c(c1)N(CCCN1CCCC1)c1ccccc1S2 | NO
CN1C(=O)N(C)C2Nn3c(s/c(=C\c4ccccc4)c3=O)=NC21 (stereo unspecified) | NO
Cc1c(C(=O)N[C@@H](Cc2ccccc2)C(=O)C(=O)NCc2ccc(F)cc2)[nH]c2ccccc2c1=O | NO
O=C(O)C(c1ccccc1)N1C(=O)CSC1=S (stereo unspecified) | NO
CCOc1c(B(O)O)cccc1-c1nc2ccc3[nH]ncc3c2c2c1CCCC2 | NO
CN1CCN(Cc2ccc(NC(=O)c3ccc(C(C)(C)C)c(C#Cc4cnc5cccnn45)c3)cc2C(F)(F)F)CC1 | YES
COc1ccc(/C=C(/C#N)n2nnc3cccc(F)c32)cc1 | NO
CCCCC[C@H](O)C/C=C1/C(=O)C=C[C@@H]1C/C=C\CCCC(=O)OC | NO
O=C(CSc1nc2ccccc2[nH]1)Nc1cccc(Cl)c1 | NO
N#C/C(=C\c1cccc2cnccc12)n1nnc2cccc(F)c21 | NO
CNC(=O)c1[nH]cc(-c2ccccc2)c1-c1cc(OC)c2c(c1OC)OCO2 | NO
COc1ccc2c(c1)C(C)Cc1c(ncnc1-n1c(C)nc3ccccc31)N2C (stereo unspecified) | NO
O=c1c2cc(F)ccc2sc2c(N3CCNCC3)nc3ccc(F)cc3c12 | YES
COc1ccc(/C=N/Nc2cc(=O)[nH]c3ccc(Cl)cc23)cc1 | NO
COc1ccc(/C=C/c2c(C(=O)/C=C/c3ccc(C(F)(F)F)cc3)c(C)nc3ccccc23)cc1 | YES
Nc1nn(C(=O)Nc2ccc(Cc3ccccc3)cc2)c2ccc(Cl)cc12 | NO
C[C@H](C(=O)Nc1ccc(S(N)(=O)=O)cc1)S(=O)(=O)c1ccccc1 | NO
COc1cc(CCC[P+](c2ccccc2)(c2ccccc2)c2ccccc2)c(OC)c2c1OCO2 | YES
CN(C)CC#Cc1ccc2ncc(C#N)c(Nc3ccc(F)c(Cl)c3)c2c1 | NO
COc1cc(Nc2nc(NCCN)nc3cc[nH]c(=O)c23)cc(OC)c1 | NO
COc1ccc(OC)c(/C=C/C(=O)N/N=C/c2ccccc2)c1 | NO
